- assayDetails: Cochleate formation by light microscopy
- Format: physicochemical
- Parameters: key: or above (E!); excellent (E); good (G); poor (P); none (N)
- experimentalSetup: DMPE:DOPG 75:25; 1:10 lipid to polymer ratio
endpoint: Cochleate formation

Here are 5 molecules together with their reported answers.
{"molecule": "CCCCCCCCCCCC(=O)NC(CCCCN)C(=O)NCCCCCCCC(=O)NC(CCCCN)C(=O)NCCCCCCCC(=O)NC(CCCCN)C(=O)NCCCCCCCC(=O)NC(CCCCN)C(=O)NCCCCCCCC(=O)NC(CCCCN)C(=O)NCCCCCCCC(=O)NC(CCCCN)C(=O)NCCCCCCCC(=O)NC(CCCCN)C(=O)NCCCCCCCC(=O)NC(CCCCN)C(N)=O (stereo not drawn) [C12K-7α8, C12K(NC8K)7NH2]", "Cochleate formation": "E"}
{"molecule": "CCCCCCCCCCCC(=O)N[C@@H](CCCCN)C(=O)NCCCCCCCC(=O)N[C@@H](CCCCN)C(=O)NCCCCCCCC(=O)N[C@@H](CCCCN)C(=O)NCCCCCCCC(=O)N[C@@H](CCCCN)C(=O)NCCCCCCCC(=O)N[C@@H](CCCCN)C(=O)NCCCCCCCC(=O)N[C@@H](CCCCN)C(=O)NCCCCCCCC(=O)N[C@@H](CCCCN)C(N)=O [C12K-6α8, C12K(NC8K)6NH2]", "Cochleate formation": "G"}
{"molecule": "CCCCCCCCCCCC(=O)NC(CCCCN)C(=O)NCCCCCCCC(=O)NC(CCCCN)C(=O)NCCCCCCCC(=O)NC(CCCCN)C(=O)NCCCCCCCC(=O)NC(CCCCN)C(=O)NCCCCCCCC(=O)NC(CCCCN)C(=O)NCCCCCCCC(=O)NC(CCCCN)C(=O)NCCCCCCCC(=O)NC(CCCCN)C(=O)NCCCCCCCC(=O)NC(CCCCN)C(=O)NCCCCCCCC(=O)NC(CCCCN)C(N)=O (stereo not drawn) [C12K-8α8, C12K(NC8K)8NH2]", "Cochleate formation": "G"}
{"molecule": "CCCCCCCCCCCC(=O)NC(CCCCN)C(=O)NCCCCCCCC(=O)NC(CCCCN)C(=O)NCCCCCCCC(=O)NC(CCCCN)C(=O)NCCCCCCCC(=O)NC(CCCCN)C(=O)NCCCCCCCC(=O)NC(CCCCN)C(=O)NCCCCCCCC(=O)NC(CCCCN)C(=O)NCCCCCCCC(=O)NC(CCCCN)C(=O)NCCCCCCCC(=O)NC(CCCCN)C(=O)NCCCCCCCC(=O)NC(CCCCN)C(=O)NCCCCCCCC(=O)NC(CCCCN)C(N)=O (stereo not drawn) [C12K-9α8, C12K(NC8K)9NH2]", "Cochleate formation": "E!"}
{"molecule": "CCCCCCCCCCCC(=O)NC(CCCCN)C(=O)NCCCCCCCC(=O)NC(CCCCN)C(=O)NCCCCCCCC(=O)NC(CCCCN)C(=O)NCCCCCCCC(=O)NC(CCCCN)C(=O)NCCCCCCCC(=O)NC(CCCCN)C(=O)NCCCCCCCC(=O)NC(CCCCN)C(=O)NCCCCCCCC(=O)NC(CCCCN)C(=O)NCCCCCCCC(=O)NC(CCCCN)C(=O)NCCCCCCCC(=O)NC(CCCCN)C(=O)NCCCCCCCC(=O)NC(CCCCN)C(=O)NCCCCCCCC(=O)NC(CCCCN)C(=O)NCCCCCCCC(=O)NC(CCCCN)C(N)=O (stereo not drawn) [C12K-11α8, C12K(NC8K)11NH2]", "Cochleate formation": "E"}

Let us move to another entry and its Cochleate formation.
Problem: Reported Cochleate formation for CCCCCCCCCCCC(=O)N[C@@H](CCCCN)C(=O)NCCCCCCCC(=O)N[C@@H](CCCCN)C(=O)NCCCCCCCC(=O)N[C@@H](CCCCN)C(=O)NCCCCCCCC(=O)N[C@@H](CCCCN)C(=O)NCCCCCCCC(=O)N[C@@H](CCCCN)C(=O)NCCCCCCCC(=O)N[C@@H](CCCCN)C(N)=O [C12K-5α8, C12K(NC8K)5NH2] : what is it?
Result: E

----------
Measured FIC values are reported for all entries that follow.
- Tested on: E. coli AG100, wild type (efflux+)
- Format: cell-based
- experimentalSetup: sub-MIC C12K-7α8
Please respond with just the number, no unit label.

Here are 4 compounds together with their reported answers.
{"sampleSmiles": "CC1(C)S[C@@H]2[C@H](NC(=O)Cc3ccccc3)C(=O)N2[C@H]1C(=O)O", "testResult": 0.58}
{"sampleSmiles": "CO[C@H]1/C=C/O[C@@]2(C)Oc3c(C)c(O)c4c(O)c(c(/C=N/N5CCN(C)CC5)c(O)c4c3C2=O)NC(=O)/C(C)=C\\C=C\\[C@H](C)[C@H](O)[C@@H](C)[C@@H](O)[C@@H](C)[C@H](OC(C)=O)[C@@H]1C", "testResult": 0.46}
{"sampleSmiles": "Cc1onc(-c2ccccc2)c1C(=O)N[C@@H]1C(=O)N2[C@@H]1SC(C)(C)[C@@H]2C(=O)O", "testResult": 0.5}
{"sampleSmiles": "CC[C@H]1OC(=O)[C@H](C)[C@@H](O[C@H]2C[C@@](C)(OC)[C@@H](O)[C@H](C)O2)[C@H](C)[C@@H](O[C@@H]2O[C@H](C)C[C@H](N(C)C)[C@H]2O)[C@](C)(O)C[C@@H](C)C(=O)[C@H](C)[C@@H](O)[C@]1(C)O", "testResult": 0.46}

Let us move to another entry and its FIC.
Problem: Reported FIC for CCN1CCN(C(=O)N[C@@H](C(=O)N[C@@H]2C(=O)N3[C@@H]2SC(C)(C)[C@@H]3C(=O)O)c2ccccc2)C(=O)C1=O : what is it?
Result: 0.75

----------
- assayDetails: Cochleate formation by light microscopy
- Type: physicochemical
- Parameters: key: or above (E!); excellent (E); good (G); poor (P); none (N)
- experimentalSetup: POPE:TOCL 75:25; 1:10 lipid to polymer ratio
- Protocol: Lipid films containing binary mixtures of lipids were made from aliquots of stock solutions in chloroform:methanol (2:1). The solvent was evaporated with a stream of nitrogen gas and the lipids deposited as a film on the walls of a glass tube. […] Hydrated films were subjected to freeze thawing three times before imaging, to ensure proper equilibration of OAK with the multilamellar vesicles. […] Images were analyzed with the Zeiss LSM image browser v2.8. […]

{"compound": "CCCCCCCCCCCC(=O)NC(CCCCN)C(=O)NCCCCCCCC(=O)NC(CCCCN)C(=O)NCCCCCCCC(=O)NC(CCCCN)C(=O)NCCCCCCCC(=O)NC(CCCCN)C(=O)NCCCCCCCC(=O)NC(CCCCN)C(=O)NCCCCCCCC(=O)NC(CCCCN)C(=O)NCCCCCCCC(=O)NC(CCCCN)C(=O)NCCCCCCCC(=O)NC(CCCCN)C(=O)NCCCCCCCC(=O)NC(CCCCN)C(=O)NCCCCCCCC(=O)NC(CCCCN)C(=O)NCCCCCCCC(=O)NC(CCCCN)C(=O)NCCCCCCCC(=O)NC(CCCCN)C(N)=O (stereo not drawn) [C12K-11α8, C12K(NC8K)11NH2]", "Cochleate formation": "G"}

----------
- System: E. coli U-16329
- assayDetails: Antibiotic MIC / chemo-sensitization checkerboard with OAK, E. coli U-16329
- Format: cell-based
- experimentalSetup: +[…] C12K-7α8 (⅓ MIC)
- Experimental: Bacteria were grown overnight in LB growth medium and diluted 10,000-fold in same medium. Inhibition of proliferation was determined by optical density measurements (620 nm) after incubation overnight at 37° C. Synergistic effect of the combinations was assessed by determination of the fractional inhibitory concentration (FIC) where FIC=(MIC OAK in combination with antibiotic)/(MIC OAK alone)+(MIC antibiotic in combination)/(MIC antibiotic alone). Synergy was determined for FIC 0.5.
Measured Antibiotic MIC in presence of OAK values are reported for all entries that follow.
Write down the numeric answer in µg/mL and omit the unit.

{"sampleSmiles": "CCN1CCN(C(=O)N[C@@H](C(=O)N[C@@H]2C(=O)N3[C@@H]2SC(C)(C)[C@@H]3C(=O)O)c2ccccc2)C(=O)C1=O", "Antibiotic MIC in presence of OAK [µg/mL]": 128}

Problem: Reported Antibiotic MIC in presence of OAK for CC1(C)S[C@@H]2[C@H](NC(=O)Cc3ccccc3)C(=O)N2[C@H]1C(=O)O : what is it?
Result: 256

Problem: Reported Antibiotic MIC in presence of OAK for CO[C@H]1/C=C/O[C@@]2(C)Oc3c(C)c(O)c4c(O)c(c(/C=N/N5CCN(C)CC5)c(O)c4c3C2=O)NC(=O)/C(C)=C\C=C\[C@H](C)[C@H](O)[C@@H](C)[C@@H](O)[C@@H](C)[C@H](OC(C)=O)[C@@H]1C : what is it?
Result: 2

Problem: Reported Antibiotic MIC in presence of OAK for CC[C@H]1OC(=O)[C@H](C)[C@@H](O[C@H]2C[C@@](C)(OC)[C@@H](O)[C@H](C)O2)[C@H](C)[C@@H](O[C@@H]2O[C@H](C)C[C@H](N(C)C)[C@H]2O)[C@](C)(O)C[C@@H](C)C(=O)[C@H](C)[C@@H](O)[C@]1(C)O : what is it?
Result: 64

Each recorded value in this set is attributed to patent US8951563B2.
